- measurement_notes: HUVEC growth inhibition – cell-based, human, primary screen (AID 575);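 also: 100% = median of untreated cell wells with 0.1% DMSO on each plate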
- condition_description: HUVEC proliferation, CellTiter-Glo luminescence, 72 h; at 10 µM; hits give low values
measurement_label: viability (%)
I only need the number, in %, no unit after it.

Previously resolved entries follow.
# test_smiles, value_measured
records = [
    ("Cc1ccc(C)c(N2CCN(Cc3nnnn3C3CCCCC3)CC2)c1", 78.1),
    ("O=C(CN1C(=O)CC(c2ccccc2)=Nc2ccccc21)NCc1ccco1", 99.2),
    ("Cc1[nH]nc2c1C1(CCN(C(=O)c3ccccc3)CC1)C(C#N)=C(N)O2", 104),
]

[ask] Field request: viability | item: Cn1c(=O)cc(SCC(=O)NCc2cccnc2)c2ccccc21
[reply] 109

[ask] Look at this compound and give its reported viability. Cc1cc(O)c(NC(=O)c2ccc(Br)o2)cc1C
[reply] 71

[ask] // query viability value for entry Cc1ccc2c(c1)CCCN2C(=O)c1ccc2c(c1)OCO2
[reply] 108
